- TARGET_OR_TEST_SYSTEM: LAT1 (SLC7A5) (Homo sapiens)
- Construct: with 4F2hc (SLC3A2)
- Sequence (Q01650 whole entry): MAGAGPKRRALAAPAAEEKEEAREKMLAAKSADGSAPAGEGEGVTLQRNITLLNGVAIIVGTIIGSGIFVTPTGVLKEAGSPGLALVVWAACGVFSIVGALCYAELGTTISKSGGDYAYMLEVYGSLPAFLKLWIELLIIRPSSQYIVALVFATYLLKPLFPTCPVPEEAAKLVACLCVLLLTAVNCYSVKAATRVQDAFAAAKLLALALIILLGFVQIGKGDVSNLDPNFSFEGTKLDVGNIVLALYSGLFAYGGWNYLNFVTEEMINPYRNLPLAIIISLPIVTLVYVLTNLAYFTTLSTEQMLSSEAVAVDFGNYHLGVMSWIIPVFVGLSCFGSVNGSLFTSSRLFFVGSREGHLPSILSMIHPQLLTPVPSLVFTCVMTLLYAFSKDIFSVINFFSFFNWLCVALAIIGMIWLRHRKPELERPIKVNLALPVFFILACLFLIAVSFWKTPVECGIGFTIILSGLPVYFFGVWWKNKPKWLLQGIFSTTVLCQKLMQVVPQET
- Sequence (P08195 103-630 partner): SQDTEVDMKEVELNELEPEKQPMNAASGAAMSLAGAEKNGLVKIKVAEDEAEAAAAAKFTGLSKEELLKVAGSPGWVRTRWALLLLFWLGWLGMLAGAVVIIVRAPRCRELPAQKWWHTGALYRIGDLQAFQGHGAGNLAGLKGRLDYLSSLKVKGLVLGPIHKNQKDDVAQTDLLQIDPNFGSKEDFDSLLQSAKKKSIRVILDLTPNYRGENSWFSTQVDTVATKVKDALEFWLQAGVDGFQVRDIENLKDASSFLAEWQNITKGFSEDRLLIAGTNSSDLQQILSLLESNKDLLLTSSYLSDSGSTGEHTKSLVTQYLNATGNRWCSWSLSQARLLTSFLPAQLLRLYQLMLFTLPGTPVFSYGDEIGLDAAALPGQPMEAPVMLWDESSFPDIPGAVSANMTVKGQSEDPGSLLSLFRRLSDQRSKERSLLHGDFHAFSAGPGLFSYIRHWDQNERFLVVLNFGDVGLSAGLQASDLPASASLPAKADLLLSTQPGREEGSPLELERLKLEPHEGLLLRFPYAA
- PROTOCOL_DESCRIPTION: cryo-EM structure of the LAT1-4F2hc complex; IC50 from [3H]-L-leucine uptake in HT-29 cells
MEASUREMENT_KIND: pIC50
Scale: pIC50 equals -log10([C]), with [C] in mol/L.

Recorded results for 2 compounds are shown here.
# COMPOUND, MEASUREMENT_KIND, OBSERVED
measured = [
    ("NC1(C(=O)O)CCc2ccc(OCc3cccc4ccccc34)cc2C1 (stereo not drawn)", "pIC50", 6.78),
    ("NC1(C(=O)O)CCc2ccc(OCc3ccccc3-c3ccccc3)cc2C1 (stereo not drawn)", "pIC50", 6.92),
]

For the next question, use this compound.
Give pIC50 only, for NC1(C(=O)O)CCc2ccc(OCc3ccccc3-c3nc4ccccc4o3)cc2C1 (stereo not drawn) , using LAT1 (SLC7A5) (Homo sapiens) data.
6.63
